- System: interleukin-4 (IL-4)
- TEST NAME: IL-4 production from OVA-sensitized mouse spleen cells induced by antigen stimulation (ELISA)
- Format: cell-based
- COND: test compound 10 μM; OVA-stimulated sensitized spleen cells, 3 days culture supernatant
Consider the following compounds; for each one, report its IL-4.

COMPOUND: Nc1nc(Cc2ccccc2)nc2c1nc(O)n2Cc1ccccc1 [Example 24, 2,9-Dibenzyl-8-Hydroxyadenine]
IL-4: <7.8 pg/mL

COMPOUND: Nc1nc(C2CCCCC2)nc2c1nc(O)n2Cc1ccccc1 [Example 21, 9-Benzyl-2-Cyclohexyl-8-Hydroxyadenine]
IL-4: <7.8 pg/mL

COMPOUND: CC(C)c1nc(N)c2nc(O)n(Cc3ccccc3)c2n1 [Example 45, 9-Benzyl-8-Hydroxy-2-Isopropyladenine]
IL-4: <7.8 pg/mL

Please give IL-4, item by item, for the list that follows.
1. Cc1nc(N)c2nc(O)n(Cc3cccc(Cl)c3)c2n1
2. Cc1nc(N)c2nc(S)n(Cc3ccccc3)c2n1
3. CCCCCc1nc(N)c2nc(O)n(Cc3ccccc3)c2n1 [Example 20, 9-Benzyl-8-Hydroxy-2-Pentyladenine]

<7.8 pg/mL
<7.8 pg/mL
<7.8 pg/mL

* * *

- System: interleukin-5 (IL-5)
- TEST NAME: IL-5 production from OVA-sensitized mouse spleen cells induced by antigen stimulation (ELISA)
- Assay type: cell-based
- COND: test compound 0.1 μM; OVA-stimulated sensitized spleen cells, 3 days culture supernatant
MEASUREMENT LABEL: IL-5

MOLECULE: Cc1nc(N)c2nc(O)n(Cc3cccc(Cl)c3)c2n1 [Example 18]
TEST SYSTEM: interleukin-5 (IL-5)
RESULT: 4,150 pg/ml

MOLECULE: Nc1nc(Cc2ccccc2)nc2c1nc(O)n2Cc1ccccc1 [Example 24, 2,9-Dibenzyl-8-Hydroxyadenine]
TEST SYSTEM: interleukin-5 (IL-5)
RESULT: 3,670 pg/ml

MOLECULE: Cc1nc(N)c2nc(S)n(Cc3ccccc3)c2n1 [Example 19, 9-Benzyl-8-Mercapto-2-Methyladenine]
TEST SYSTEM: interleukin-5 (IL-5)
RESULT: 4,482 pg/ml

Please give IL-5, item by item, for the list that follows.
1. Nc1nc(C2CCCCC2)nc2c1nc(O)n2Cc1ccccc1 [Example 21, 9-Benzyl-2-Cyclohexyl-8-Hydroxyadenine]
2. CCCCCc1nc(N)c2nc(O)n(Cc3ccccc3)c2n1 [Example 20, 9-Benzyl-8-Hydroxy-2-Pentyladenine]
3. CC(C)c1nc(N)c2nc(O)n(Cc3ccccc3)c2n1 [Example 45, 9-Benzyl-8-Hydroxy-2-Isopropyladenine]

["4,103 pg/ml", "1,667 pg/ml", "2,881 pg/ml"]
